- Tested on: 889142-216-R-J1-PDC complex spheroid viability;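 further: spheroids exposed to compounds for seven days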
- assay_name: Anticancer human tumor 889142-216-R-J1-PDC patient-derived bladder carcinoma cell line growth inhibition [POLQ]
- condition_set: curve of first compound; second compound 0.1 µM
Here, each record is paired with measured IC50 data.
Provide only the numeric value, understood in nM.

INSERT INTO measurements (compound, target_or_system, experimental_readout, measured_result) VALUES
  ('COc1cccc2c1C(=O)c1c(O)c3c(c(O)c1C2=O)CC(O)(C(=O)CO)CC3OC1CC(N)C(O)C(C)O1 (stereo not given) + COC1C(OC(N)=O)C(O)C(Oc2ccc3c(O)c(NC(=O)c4ccc(O)c(CC=C(C)C)c4)c(=O)oc3c2C)OC1(C)C', '889142-216-R-J1-PDC complex spheroid viability', 'IC50', 164);

Data request: Give the measured IC50 of COc1cccc(OCCCN)c1-c1cc(Nc2cnc(C#N)cn2)n[nH]1 + COC1C(OC(N)=O)C(O)C(Oc2ccc3c(O)c(NC(=O)c4ccc(O)c(CC=C(C)C)c4)c(=O)oc3c2C)OC1(C)C .
Data returned: 19.8

Where do the numbers come from? From PubChem BioAssay AID1963831.
